- assay target: Alpha-1D adrenergic receptor (Homo sapiens)
- Sequence (P25100 whole entry): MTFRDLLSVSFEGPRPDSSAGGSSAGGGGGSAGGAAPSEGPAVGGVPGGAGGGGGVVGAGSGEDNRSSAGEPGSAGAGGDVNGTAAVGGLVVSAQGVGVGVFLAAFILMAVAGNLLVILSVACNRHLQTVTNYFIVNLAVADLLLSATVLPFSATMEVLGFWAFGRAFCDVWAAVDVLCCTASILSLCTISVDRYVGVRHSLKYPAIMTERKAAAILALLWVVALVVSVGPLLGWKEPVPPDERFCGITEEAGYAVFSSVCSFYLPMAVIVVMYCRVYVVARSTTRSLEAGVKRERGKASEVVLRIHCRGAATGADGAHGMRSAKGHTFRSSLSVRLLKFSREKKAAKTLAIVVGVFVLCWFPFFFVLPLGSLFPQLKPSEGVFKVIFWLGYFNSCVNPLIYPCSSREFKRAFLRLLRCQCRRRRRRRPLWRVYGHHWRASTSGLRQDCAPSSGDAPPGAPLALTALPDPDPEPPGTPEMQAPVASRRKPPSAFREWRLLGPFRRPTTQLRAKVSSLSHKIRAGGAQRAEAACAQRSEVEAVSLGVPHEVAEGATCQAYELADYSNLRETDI
measurement label: pKi
# pKi = -log10(concentration in molar units)

Example molecules with recorded pKi:
molecule: c1ccc(OCCNC[C@@H]2COC[C@@H](c3ccccc3)O2)cc1 (relative stereo)
pKi: 6.81
--
molecule: c1ccc(OCCNC[C@@H]2CO[C@H](c3ccccc3)CO2)cc1 (relative stereo)
pKi: 6.45
--
molecule: COc1ccccc1OCCNC[C@@H]1COCC(c2ccccc2)(c2ccccc2)O1
pKi: 8.94
--
molecule: COc1cccc(OC)c1OCCNC[C@@H]1COC(c2ccccc2)(c2ccccc2)CO1
pKi: 6.77
--
molecule: c1ccc(OCCNC[C@@H]2COCC(c3ccccc3)(c3ccccc3)O2)cc1
pKi: 8.44

// query Under Alpha-1D adrenergic receptor (Homo sapiens): pKi value of c1ccc(OCCNC[C@@H]2COC[C@H](c3ccccc3)O2)cc1 (relative stereo) ?
// result 7.14

Numbers sourced from ChEMBL document CHEMBL1140161.
